Overview of reported IC50 across a group of molecules:
systemName: NOX2 (Homo sapiens)
Construct: endogenous in cells
Sequence (P04839 2-570 limits assumed): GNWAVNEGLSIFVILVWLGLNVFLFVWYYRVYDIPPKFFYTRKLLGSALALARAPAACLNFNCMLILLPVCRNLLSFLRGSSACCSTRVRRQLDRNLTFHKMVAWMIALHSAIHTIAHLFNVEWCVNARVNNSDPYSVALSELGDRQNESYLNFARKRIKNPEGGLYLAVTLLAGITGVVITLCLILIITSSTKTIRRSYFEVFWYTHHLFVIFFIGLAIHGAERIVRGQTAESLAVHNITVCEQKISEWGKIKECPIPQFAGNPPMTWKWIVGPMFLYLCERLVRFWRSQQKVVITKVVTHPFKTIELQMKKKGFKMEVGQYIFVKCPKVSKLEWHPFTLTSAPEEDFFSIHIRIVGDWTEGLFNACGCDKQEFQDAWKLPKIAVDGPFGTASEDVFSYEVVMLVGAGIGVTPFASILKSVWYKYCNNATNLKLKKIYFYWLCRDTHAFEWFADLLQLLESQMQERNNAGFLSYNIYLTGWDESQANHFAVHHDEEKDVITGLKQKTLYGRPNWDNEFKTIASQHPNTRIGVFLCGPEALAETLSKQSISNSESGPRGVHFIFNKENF
Sequence (P13498 2-195 partner limits assumed): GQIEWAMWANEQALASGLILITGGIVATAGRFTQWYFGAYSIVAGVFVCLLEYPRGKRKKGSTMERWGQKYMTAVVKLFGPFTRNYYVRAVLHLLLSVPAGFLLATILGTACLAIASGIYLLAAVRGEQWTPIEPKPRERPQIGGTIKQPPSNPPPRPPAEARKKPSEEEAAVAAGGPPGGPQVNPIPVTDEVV
assayText: NOX2 inhibition assay (L-012), human blood-derived granulocytes
appliedConditions: fMLP/PMA stimulated

Recorded IC50, per entry:
molecule="O=c1c2scnc2nc(SCc2c(F)cc(F)cc2F)n1-c1ccc(O)cn1 [Example 19]" result="48.1 µM"
molecule="O=c1c2scnc2nc(SCc2ccc(Cl)cc2F)n1-c1cc(F)c(O)c(F)c1 [Example 2]" result="> 100 µM"
molecule="O=c1c2scnc2nc(SCc2c(F)cc(F)cc2Cl)n1-c1cnc(O)c(F)c1 [Example 41]" result="39.3 µM"

Quick one: IC50 of O=c1c2scnc2nc(SCc2c(F)cc(F)cc2F)n1-c1cc(F)c(O)nc1F [Example 51] ?
> 100 µM

Also, O=c1c2scnc2nc(SCc2ccc(C(F)(F)F)cc2)n1-c1ccc(O)nn1 [Example 66] please.
> 100 µM

Also, O=c1c2scnc2nc(SCc2c(F)cc(F)cc2F)n1-c1cc(F)c(O)cn1 [Example 20] please.
> 100 µM

Also, Cc1cc(F)ccc1CSc1nc2ncsc2c(=O)n1-c1cnc(O)nc1 [Example 58] please.
> 100 µM

Also, O=c1c2scnc2nc(SCc2c(F)cc(F)cc2F)n1-c1ccc(O)cc1F [Example 14] please.
13.4 µM

Also, O=c1c2scnc2nc(SCc2ccc(C(F)(F)F)cc2F)n1-c1cnc(O)c(F)c1 [Example 42] please.
> 100 µM

###

systemName: UniProtKB Q96PH1
Sequence (Q96PH1 whole entry): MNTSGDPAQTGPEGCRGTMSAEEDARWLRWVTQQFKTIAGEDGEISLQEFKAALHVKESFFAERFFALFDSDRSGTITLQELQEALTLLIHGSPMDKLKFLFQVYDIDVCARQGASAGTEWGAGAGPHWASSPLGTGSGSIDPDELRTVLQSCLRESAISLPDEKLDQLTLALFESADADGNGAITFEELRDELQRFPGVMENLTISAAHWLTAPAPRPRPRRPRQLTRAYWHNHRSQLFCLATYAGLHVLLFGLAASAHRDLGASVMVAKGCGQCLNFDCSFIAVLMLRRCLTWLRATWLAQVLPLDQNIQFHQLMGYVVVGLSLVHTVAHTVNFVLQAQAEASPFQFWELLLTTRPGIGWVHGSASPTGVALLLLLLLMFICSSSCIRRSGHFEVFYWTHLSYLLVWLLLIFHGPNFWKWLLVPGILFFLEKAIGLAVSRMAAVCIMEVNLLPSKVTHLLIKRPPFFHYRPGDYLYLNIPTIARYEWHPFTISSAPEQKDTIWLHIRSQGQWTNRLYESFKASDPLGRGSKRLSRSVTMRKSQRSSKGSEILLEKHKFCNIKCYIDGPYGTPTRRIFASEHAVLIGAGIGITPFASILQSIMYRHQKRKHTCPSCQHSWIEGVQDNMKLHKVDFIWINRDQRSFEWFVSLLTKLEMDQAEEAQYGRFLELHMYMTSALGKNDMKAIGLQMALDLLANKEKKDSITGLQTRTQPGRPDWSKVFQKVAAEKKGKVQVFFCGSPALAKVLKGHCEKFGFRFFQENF
assayText: NOX5 inhibition assay (L-012), HEK293 cells stably overexpressing human NOX5
appliedConditions: HEK293-hNOX5, PMA stimulated
attributeMeasured: IC50 (µM)

Recorded IC50, per entry:
compound="O=c1c2scnc2nc(SCc2c(F)cc(F)cc2F)n1-c1ccc(O)c(F)c1 [Example 11]" numericvalue=13
compound="O=c1c2scnc2nc(SCc2c(F)cc(F)cc2F)n1-c1cnc(O)c(F)c1F [Example 52]" numericvalue=38.9
compound="O=c1c2scnc2nc(SCc2c(F)ccc(F)c2F)n1-c1cnc(O)c(F)c1 [Example 45]" numericvalue=79
compound="O=c1c2scnc2nc(SCc2c(F)cc(F)cc2F)n1-c1ccc(O)cc1Cl [Example 17]" numericvalue=17.5
compound="O=c1c2scnc2nc(SCc2ccc(Cl)cc2F)n1-c1cnc(O)c(F)c1 [Example 35]" numericvalue=65.5
compound="O=c1c2scnc2nc(SCc2ccc(C(F)(F)F)cc2Cl)n1-c1cnc(O)c(F)c1 [Example 46]" numericvalue=44.7
compound="O=c1c2scnc2nc(SCc2ccc(C(F)(F)F)cc2)n1-c1cnc(O)c(F)c1 [Example 32]" numericvalue=55.7
compound="Cc1cc(Cl)ccc1CSc1nc2ncsc2c(=O)n1-c1cnc(O)nc1 [Example 54]" numericvalue=47.6
compound="Cc1cc(F)cc(C)c1CSc1nc2ncsc2c(=O)n1-c1cnc(O)nc1 [Example 55]" numericvalue=85.8
compound="O=c1c2scnc2nc(SCc2c(F)cc(F)cc2F)n1-c1ccc(O)nc1F [Example 50]" numericvalue=60.2

[a] O=c1c2scnc2nc(SCc2c(F)cc(F)cc2F)n1-c1cc(F)c(O)cn1 [Example 20]
[b] O=c1c2scnc2nc(SCc2ccc(F)cc2)n1-c1ccc(O)nc1 [Example 30]
Field: entry with larger IC50 (options a / b ). Label of pick, please.
b

[a] O=c1c2scnc2nc(SCc2c(F)cc(F)cc2F)n1-c1ccc(O)cc1F [Example 14]
[b] O=c1c2scnc2nc(SCc2ccc(C(F)(F)F)cc2F)n1-c1cnc(O)c(F)c1 [Example 42]
Field: entry with larger IC50 (options a / b ). Label of pick, please.
b
(b: 46.8 µM, a: 10.2 µM)
